Entries annotated with measured OD450 at 0.001 nM
# target.desc: T1, murine CD19 protein (murine, UniProt P25918 19-287, limits assumed)
# T1 construct: also called mouse CD19-his protein
# T1 sequence (looked up): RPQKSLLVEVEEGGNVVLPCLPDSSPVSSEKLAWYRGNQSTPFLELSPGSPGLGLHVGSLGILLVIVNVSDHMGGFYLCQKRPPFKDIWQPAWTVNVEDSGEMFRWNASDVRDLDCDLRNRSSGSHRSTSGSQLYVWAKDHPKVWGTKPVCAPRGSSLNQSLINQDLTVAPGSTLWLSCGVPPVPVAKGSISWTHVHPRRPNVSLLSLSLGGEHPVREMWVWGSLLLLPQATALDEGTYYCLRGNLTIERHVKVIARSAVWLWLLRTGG
# test: ELISA, murine CD19 coated
Reply numerically in OD450, unit not repeated.

Reference set (2 entries):
FMC63.25-mIgG1 (antibody, V domains shown, Humanized FMC63; also called FMC63-L2H5) VH: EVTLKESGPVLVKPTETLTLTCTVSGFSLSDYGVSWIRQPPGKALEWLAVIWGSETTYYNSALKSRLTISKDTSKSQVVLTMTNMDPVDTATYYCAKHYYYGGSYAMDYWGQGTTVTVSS VL: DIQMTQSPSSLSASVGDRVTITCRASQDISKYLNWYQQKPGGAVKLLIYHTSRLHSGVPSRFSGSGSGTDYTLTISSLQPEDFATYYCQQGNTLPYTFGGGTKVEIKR :: 0.08
FMC63.27-mIgG1 (antibody, V domains shown, Humanized FMC63; also called FMC63-L2H7) VH: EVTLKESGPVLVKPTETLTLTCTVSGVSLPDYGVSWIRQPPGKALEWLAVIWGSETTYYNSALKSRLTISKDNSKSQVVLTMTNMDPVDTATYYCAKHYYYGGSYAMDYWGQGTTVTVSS VL: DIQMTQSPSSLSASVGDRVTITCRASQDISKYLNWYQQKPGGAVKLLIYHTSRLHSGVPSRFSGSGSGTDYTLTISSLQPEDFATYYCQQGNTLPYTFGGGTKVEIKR :: 0.06

Challenge: Fill in the blank: the reported OD450 at 0.001 nM of FMC63-mIgG1 (antibody, V domains shown, Parent murine antibody; also called murine antibody FMC63) VH: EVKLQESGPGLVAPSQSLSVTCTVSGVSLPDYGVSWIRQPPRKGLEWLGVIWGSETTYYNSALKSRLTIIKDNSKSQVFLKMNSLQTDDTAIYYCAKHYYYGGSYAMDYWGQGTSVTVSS VL: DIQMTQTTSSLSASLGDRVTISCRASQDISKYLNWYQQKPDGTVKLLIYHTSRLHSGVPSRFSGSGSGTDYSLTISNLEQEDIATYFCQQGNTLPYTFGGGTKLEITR is ____.
Response given: 0.06
